Test system: HEK293 cells
protocolSummary: CCK8 proliferation inhibition assay, HEK293 normal cells
Assay type: cell-based, human
conditionNotes: Homo sapiens, HEK293, read-out: cell-based IC50 (HEK293, μM)
Reported IC50 by item:
Reply with just the number (in µM).

CC(C)Cc1ccc(C(C)C(=O)NNC(=O)c2cc3cc(Cl)cc(Cl)c3oc2=O)cc1 (centres unmarked)	20

# next molecule below
Ask: Find the recorded IC50 belonging to C/C(=N\NC(=O)C(C)c1ccc(CC(C)C)cc1)c1cc2cc(Br)cc(Br)c2oc1=O (centres unmarked) and report it.
Result: 32.2

====

The following are reported pIC50 results, target or system rhCOX-2 (Homo sapiens, UniProt P35354).
FYI, pIC50 means -log10 of a concentration in mol per litre.

Example entries and their recorded answers appear below.
C/C(=N\NC(=O)C(C)c1ccc(CC(C)C)cc1)c1cc2ccc(O)cc2oc1=O (stereo not drawn)	5.98
CC(C)Cc1ccc(C(C)C(=O)NNC(=O)c2cc3cc([N+](=O)[O-])ccc3oc2=O)cc1 (stereo not drawn)	6.01

# next compound below
Ask: Recall the recorded pIC50 for C/C(=N\NC(=O)C(C)c1ccc(CC(C)C)cc1)c1cc2cc(Cl)cc(Cl)c2oc1=O (stereo not drawn) with rhCOX-2 (Homo sapiens, UniProt P35354) and state it.
Sequence (P35354 18-604): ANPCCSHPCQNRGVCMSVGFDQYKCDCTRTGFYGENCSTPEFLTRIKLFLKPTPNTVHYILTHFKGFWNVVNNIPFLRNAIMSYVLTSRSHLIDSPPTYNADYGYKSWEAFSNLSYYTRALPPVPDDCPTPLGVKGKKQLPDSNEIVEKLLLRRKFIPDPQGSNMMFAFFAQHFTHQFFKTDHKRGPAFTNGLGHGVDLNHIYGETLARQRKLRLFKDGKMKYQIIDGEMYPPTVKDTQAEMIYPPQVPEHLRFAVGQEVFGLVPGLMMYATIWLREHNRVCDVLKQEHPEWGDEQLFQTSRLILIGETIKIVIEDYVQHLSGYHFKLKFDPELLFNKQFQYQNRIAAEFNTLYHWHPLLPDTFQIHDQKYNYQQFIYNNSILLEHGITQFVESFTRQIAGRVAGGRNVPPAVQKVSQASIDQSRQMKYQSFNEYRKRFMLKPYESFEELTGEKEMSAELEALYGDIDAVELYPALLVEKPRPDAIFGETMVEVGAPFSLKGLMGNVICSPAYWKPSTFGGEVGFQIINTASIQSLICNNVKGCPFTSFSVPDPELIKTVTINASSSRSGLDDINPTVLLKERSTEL
Result: 5.82
